Where these numbers come from: patent US20050053921A1

- Target Or Test System: NS3/4A protease (Hepatitis C virus genotype 1a, UniProt P27958)
- Sequence (P27958 1027-1657): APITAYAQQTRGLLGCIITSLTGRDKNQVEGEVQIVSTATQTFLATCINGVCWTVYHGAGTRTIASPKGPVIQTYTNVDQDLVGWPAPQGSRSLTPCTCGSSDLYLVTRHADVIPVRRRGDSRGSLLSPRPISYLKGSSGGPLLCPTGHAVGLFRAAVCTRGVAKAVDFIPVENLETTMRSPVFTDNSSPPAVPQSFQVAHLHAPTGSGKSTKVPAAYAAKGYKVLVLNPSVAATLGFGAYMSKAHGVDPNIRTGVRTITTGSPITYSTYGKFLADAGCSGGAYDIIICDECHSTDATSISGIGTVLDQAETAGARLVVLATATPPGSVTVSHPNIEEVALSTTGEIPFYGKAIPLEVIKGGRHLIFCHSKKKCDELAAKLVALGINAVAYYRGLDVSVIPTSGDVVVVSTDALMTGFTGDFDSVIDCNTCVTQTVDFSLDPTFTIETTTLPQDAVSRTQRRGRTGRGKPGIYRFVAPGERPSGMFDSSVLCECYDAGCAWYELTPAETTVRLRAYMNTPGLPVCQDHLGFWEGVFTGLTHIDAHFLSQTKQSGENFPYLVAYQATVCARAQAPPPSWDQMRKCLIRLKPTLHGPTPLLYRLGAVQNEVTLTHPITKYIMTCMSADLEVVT
- Sequence (P27958 1658-1711): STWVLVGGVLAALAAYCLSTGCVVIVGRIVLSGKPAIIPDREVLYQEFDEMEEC
- Protocol Details: cell-based
Measure Name: EC50

Query: Return reported EC50. Input compound: COc1ccc2c(O[C@@H]3C[C@H]4C(=O)N[C@]5(C(=O)O)C[C@H]5/C=C\CCCCC[C@H](NC(=O)OC5CCCC5)C(=O)N4C3)cc(-c3csc(NC(C)C)n3)nc2c1
Result: ~2 nM
